- experimentalTarget: Protein-tyrosine kinase 6 (Homo sapiens)
- Sequence (Q13882 whole entry, the tested form may be a part): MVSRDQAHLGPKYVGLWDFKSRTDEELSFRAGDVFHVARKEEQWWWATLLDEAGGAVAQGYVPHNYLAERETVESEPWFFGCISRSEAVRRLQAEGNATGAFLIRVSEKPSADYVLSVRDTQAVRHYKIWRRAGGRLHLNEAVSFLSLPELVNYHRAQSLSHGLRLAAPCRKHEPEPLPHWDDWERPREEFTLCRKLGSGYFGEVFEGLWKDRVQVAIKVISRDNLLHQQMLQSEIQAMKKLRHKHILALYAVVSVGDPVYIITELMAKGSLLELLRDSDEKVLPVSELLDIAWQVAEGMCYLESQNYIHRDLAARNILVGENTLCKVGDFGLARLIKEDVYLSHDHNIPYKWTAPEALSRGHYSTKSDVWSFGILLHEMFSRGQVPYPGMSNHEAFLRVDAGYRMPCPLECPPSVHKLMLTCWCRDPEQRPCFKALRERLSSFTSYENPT
- assay: Inhibition of human recombinant GST-fused Brk expressed in baculovirus Sf9 insect cells using poly(Glu,Tyr) as substrate after 60 mins by scintillation counting
With a cut-off of 0.009 µM, any IC50 strictly below it is called fulfilled; any IC50 meeting it or above is called not fulfilled.

{"columns": ["chemSmiles", "discreteLabel"],
 "data": [
  ["CC(=O)c1ccc2[nH]c3nccc(Nc4cccc([N+](=O)[O-])c4)c3c2c1", "not fulfilled"],
  ["COc1cccc(Nc2ccnc3[nH]c4ccc(S(=O)(=O)N5CCNCC5)cc4c23)c1", "fulfilled"],
  ["Clc1ccc(Nc2ccnc3[nH]c4ccccc4c23)cc1", "not fulfilled"],
  ["O=S(=O)(c1ccc2[nH]c3nccc(Nc4cccc(O)c4)c3c2c1)N1CCOCC1", "not fulfilled"],
  ["CCOc1cccc(Nc2ccnc3[nH]c4ccc(S(=O)(=O)N5CCNCC5)cc4c23)c1", "not fulfilled"],
  ["COc1cccc(Nc2ccnc3[nH]c4ccc(S(=O)(=O)N5CCOCC5)cc4c23)c1", "fulfilled"],
  ["CC(=O)c1ccc2[nH]c3nccc(Nc4cccc(N)c4)c3c2c1", "fulfilled"],
  ["CCOc1cccc(Nc2ccnc3[nH]c4ccc(S(=O)(=O)N5CCOCC5)cc4c23)c1", "not fulfilled"],
  ["O=S(=O)(c1ccc2[nH]c3nccc(Nc4cccc(OCc5ccccc5)c4)c3c2c1)N1CCOCC1", "not fulfilled"],
  ["CC(=O)c1ccc2[nH]c3nccc(Nc4cccc(O)c4)c3c2c1", "not fulfilled"],
  ["CCOc1cccc(Nc2ccnc3[nH]c4ccc(S(=O)(=O)N5CCN(CCO)CC5)cc4c23)c1", "not fulfilled"],
  ["CC(=O)c1ccc2[nH]c3nccc(Nc4cccc(Cl)c4)c3c2c1", "not fulfilled"],
  ["O=S(=O)(c1ccc2[nH]c3nccc(Nc4cccc(O)c4)c3c2c1)N1CCN(CCO)CC1", "not fulfilled"],
  ["Cc1ccccc1Nc1ccnc2[nH]c3ccccc3c12", "not fulfilled"]
]}
